ASSAY_DETAILS: amyloid nucleation score (Sup35N fusion, yeast selection) (log enrichment); library NNK1; higher = more nucleation; inactive = no reads after selection;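 note: zero at mode of non-aggregating sequences after 7 days selection at 30°C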
Values of amyloid nucleation score greater than or equal to 0.04 map to fulfilled; values below map to not fulfilled.

hey, is amyloid nucleation score for this one >= 0.04? `IFRMAPKQCPSLWVASPHWI`
fulfilled

hey, is amyloid nucleation score for this one >= 0.04? `AVLIRSGCRIRNRRHG`
fulfilled

hey, is amyloid nucleation score for this one >= 0.04? `ILTRVV`
fulfilled

hey, is amyloid nucleation score for this one >= 0.04? `HESYVVRIYIFEDRRYLCEV`
not fulfilled

hey, is amyloid nucleation score for this one >= 0.04? `SFYYWHPIALVSMVYK`
fulfilled

hey, is amyloid nucleation score for this one >= 0.04? `YYFIFII`
fulfilled

hey, is amyloid nucleation score for this one >= 0.04? `HDASSFSLMRKFRCGC`
fulfilled

hey, is amyloid nucleation score for this one >= 0.04? `FLNNLAGWGYPCFTGVYANA`
not fulfilled

hey, is amyloid nucleation score for this one >= 0.04? `FRWTLTSLRSVNDFSG`
fulfilled

hey, is amyloid nucleation score for this one >= 0.04? `VSSNYMRNML`
fulfilled

hey, is amyloid nucleation score for this one >= 0.04? `TEYISG`
not fulfilled

hey, is amyloid nucleation score for this one >= 0.04? `FNCLMALIFPDVLDCSYSVD`
fulfilled

hey, is amyloid nucleation score for this one >= 0.04? `EKILLG`
not fulfilled

hey, is amyloid nucleation score for this one >= 0.04? `TVTWASGFMGGVDHCSWGQV`
fulfilled

hey, is amyloid nucleation score for this one >= 0.04? `LYHRGVFELCS`
fulfilled

hey, is amyloid nucleation score for this one >= 0.04? `RCGRSVVDGLRCFRLRMAFG`
not fulfilled

hey, is amyloid nucleation score for this one >= 0.04? `IRKFLFLFNALLSAPLLFHK`
not fulfilled

hey, is amyloid nucleation score for this one >= 0.04? `GDTYHNYVWRLDACSTLPWY`
not fulfilled
